target: CRX HD E42K (UniProt O43186 31-107, E42K); experiment: BLI
Sequence (O43186 31-107 E42K): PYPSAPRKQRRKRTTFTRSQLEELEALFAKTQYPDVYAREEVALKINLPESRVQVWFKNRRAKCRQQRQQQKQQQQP
VALUE TYPE: Kd (nM)
Provide the reading as a plain figure in nM.

Query (binder): Ret4 20-mer biotinylated (dsDNA) DNA 1: CAGGAGCTTAGGAGGGGGAG DNA 2: CTCCCCCTCCTAAGCTCCTG ; field requested: Kd
30
